# System: DMS-114
# runDescription: NCI tumour cell line growth inhibition, 48 h
Active and inactive are the calls of the source. Rule as the data show it: active = GI50 up to about 1.1 µM and inactive = higher.
valueKind: GI50

>>> result("O=[N+]([O-])c1nccn1COCCBr")
"> 100 µM (inactive)"
>>> result("CCCCCCCCCCCCCC(=O)OCC1OC(=O)CC1O (stereo unspecified)")
"49.4 µM (inactive)"
>>> result("CC[C@@H]1C[C@H]2CC3c4[nH]c5ccc(O)cc5c4CCN(C2)C31")
"> 100 µM (inactive)"
>>> result("CCOC(=O)C1(Cc2ccccc2)CCCCCN1 (stereo unspecified)")
"> 100 µM (inactive)"
>>> result("CC1(C)CC(=O)c2c(oc3cc(O)c(O)cc23)C1")
"13.2 µM (inactive)"

Please report the recorded GI50 for O=C(Nc1nnn[nH]1)c1nc(O)cc(-c2ccccc2)n1 . > 100 µM (inactive)

====

# System: COLO 205
# runDescription: NCI tumour cell line growth inhibition, 48 h
The source made the active and inactive calls. Rule as the data show it: active = GI50 up to about 1.1 µM and inactive = higher.
Pick one: active, inactive

See these solved cases before continuing.
>>> assignedclass("CC(=O)Nc1cc2nc3n(c2cc1C)CCC3OC(C)=O (stereo unspecified)")
"inactive"
>>> assignedclass("COc1ccc(/N=N/C(=O)NC(Cc2ccccc2)C(=O)O)cc1 (stereo unspecified)")
"inactive"
>>> assignedclass("COc1c2occc2c(OC)c2c(=O)c(S(=O)(=O)NC(=O)Nc3ccc(Cl)cc3)coc12")
"inactive"
>>> assignedclass("O=C1Nc2ccccc2C(=O)/C1=C/NC(=S)NCc1ccccc1")
"inactive"
>>> assignedclass("O=[N+]([O-])c1nccn1COCCBr")
"inactive"

Please examine the following record next.
// param item: COC(=O)Nc1nc2cc(Br)ccc2[nH]1 ; yields the recorded call inactive

====

# Tested on: IGROV-1
# runDescription: NCI tumour cell line growth inhibition, 48 h
The source made the active and inactive calls. Rule as the data show it: active = GI50 up to about 1.1 µM and inactive = higher.
Item-by-item account of GI50

In the examples that follow, each entry is paired with its recorded GI50.
>>> result("CCOc1ccccc1/N=C(/NC(=O)CC)SC")
"> 10 µM (inactive)"
>>> result("Cc1cc2c(cc1N)C(C)C1(CCC(=O)N2Cc2ccccc2)OCCO1 (stereo unspecified)")
"> 100 µM (inactive)"
>>> result("CCCn1cc2c(O)nc(SC)nc2n1")
"> 100 µM (inactive)"
>>> result("CSC(=N\\c1ccccc1)/N=C(\\SCc1ccccc1)N(C)C")
"0.923 µM (active)"

Please report the recorded GI50 for CC(C(=O)c1ccccc1)C1(O)C(=O)Nc2ccccc21 (stereo unspecified) . > 100 µM (inactive)

Please report the recorded GI50 for C=CCCCCCCCCC(=O)NS(=O)(=O)c1ccccc1 . > 100 µM (inactive)

Please report the recorded GI50 for COC(=O)c1c(O)ccc2c1c1c(n2Cc2cccc(C)c2)C(=O)c2ccccc2C1 . 42.7 µM (inactive)

Please report the recorded GI50 for O=C(O)[C@@H]1C2CC([C@@H]1C(=O)O)[C@H](N1C(=O)CCC1=O)[C@@H]2Br (stereo partly specified) . > 100 µM (inactive)

Please report the recorded GI50 for Cc1cc(S(=O)(=O)NC2=NCCCN2)c(S)cc1Cl . 27.5 µM (inactive)

Please report the recorded GI50 for c1sc(NC2=NCCO2)c2c1CCCC2 . > 100 µM (inactive)

Please report the recorded GI50 for O=[N+]([O-])c1ccc(S(=O)(=O)n2c3ccc(Br)cc3c3nc4ccccc4nc32)cc1 . > 100 µM (inactive)
